biological target: microtubules
property: MT depolymerization

* KinI-3 construct D183L546 (protein) MDCDIPIIQRISHVSGYNYGIPHSCIRQNTSEKQNPWTEMEKIRVCVRKRPLGMREVRRGEINIITVEDKETLLVHEKKEAVDLTQYILQHVFYFDEVFGEACTNQDVYMKTTHPLIQHIFNGGNATCFAYGQTGAGKTYTMIGTHENPGLYALAAKDIFRQLEVSQPRKHLFVWISFYEIYCGQLYDLLNRRKRLFAREDSKHMVQIVGLQELQVDSVELLLEVILKGSKERSTGATGVNADSSRSHAVIQIQIKDSAKRTFGRISFIDLAGSERAADARDSDRQTKMEGAEINQSLLALKECIRALDQEHTHTPFRQSKLTQVLKDSFIGNAKTCMIANISPSHVATEHTLNTLRYADRVKELLEHHHHHH | yes
